Give melting point for every item shown.

query: Let me know recorded melting point for "COC(=O)c1cccc(-c2c(C#N)nn(-c3c(Cl)cc(C(F)(F)F)cc3Cl)c2N)c1" , thanks.
result: 214 to 216 °C

query: Let me know recorded melting point for "N#Cc1nn(-c2c(Cl)cc(C(F)(F)F)cc2Cl)c(N)c1-c1ccc(Br)s1" , thanks.
result: 214 °C

query: Let me know recorded melting point for "Cc1ccc(-c2c(C#N)nn(-c3c(Cl)cc(C(F)(F)F)cc3Cl)c2N)cc1" , thanks.
result: 243 to 244 °C

query: Let me know recorded melting point for "N#Cc1nn(-c2c(Cl)cc(C(F)(F)F)cc2Cl)c(N)c1-c1ccncc1" , thanks.
result: 266 to 268 °C (dec.)

query: Let me know recorded melting point for "N#Cc1nn(-c2c(Cl)cc(C(F)(F)F)cc2Cl)c(N)c1-c1ccc(F)c(Cl)c1" , thanks.
result: 197 to 198 °C

query: Let me know recorded melting point for "N#Cc1nn(-c2c(Cl)cc(C(F)(F)F)cc2Cl)c(N)c1-c1cccc(N)c1" , thanks.
result: 187 °C

query: Let me know recorded melting point for "N#Cc1nn(-c2c(Cl)cc(C(F)(F)F)cc2Cl)c(N)c1-c1cccs1" , thanks.
result: 206 to 207 °C
